Provenance of the data: patent US9796709B2

- study-target: LCAT (Homo sapiens, UniProt P04180)
- Construct: The obtained fraction was dialyzed against phosphate-buffered saline (pH 7.4) and used as an enzyme source and an acceptor for LCAT; from tissue; host or cells: HDL3 fraction (1.125 < specific gravity < 1.210 g/mL) of plasma from a healthy person
- Sequence (P04180 25-440): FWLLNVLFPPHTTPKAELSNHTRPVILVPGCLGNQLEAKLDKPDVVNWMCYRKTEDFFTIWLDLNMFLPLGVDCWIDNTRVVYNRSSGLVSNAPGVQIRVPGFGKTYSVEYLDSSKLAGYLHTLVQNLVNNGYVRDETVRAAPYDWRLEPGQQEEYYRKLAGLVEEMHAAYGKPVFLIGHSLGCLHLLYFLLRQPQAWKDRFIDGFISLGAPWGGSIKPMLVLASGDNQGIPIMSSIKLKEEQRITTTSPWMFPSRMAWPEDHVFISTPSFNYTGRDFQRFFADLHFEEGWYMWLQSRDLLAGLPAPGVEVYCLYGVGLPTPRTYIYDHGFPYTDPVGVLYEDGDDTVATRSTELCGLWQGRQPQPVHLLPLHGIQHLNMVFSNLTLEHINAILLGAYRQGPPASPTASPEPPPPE
- test-description: LCAT activity measurement (in vitro), [14C]cholesterol esterification with HDL3 fraction
- Assay type: biochemical
- recorded-conditions: HDL3 fraction from plasma of a healthy person as enzyme source and acceptor; 37° C., approximately 16 hours; relative to sample without test drug; read-out: EC50 of LCAT activation
assay-metric: pEC50
The read-out pEC50 is expressed as -log10 of concentration in moles per litre.

Below, 4 compounds whose answers are already recorded.
{"compound": "O=C1Nc2[nH]nc(C3CCN(c4cc(C(=O)N5CCCCC5)c(C(F)(F)F)cn4)CC3)c2[C@@H](C(F)(F)F)[C@H]1O (racemic) [Example 33]", "measured": 7.24}
{"compound": "N#Cc1cnc(N2CCC(c3n[nH]c4c3[C@@H](C(F)(F)F)[C@@H](O)C(=O)N4)CC2)cn1 (single isomer, unassigned) [Example 28]", "measured": 6.80}
{"compound": "O=C1Nc2[nH]nc(C3CCN(c4ncc(C(F)(F)F)cc4Cl)CC3)c2[C@@H](C(F)(F)F)[C@H]1O (racemic) [Example 14]", "measured": 6.42}
{"compound": "CC(C)Oc1ccc(N2CCC(c3n[nH]c4c3[C@@H](C(F)(F)F)[C@@H](O)C(=O)N4)CC2)nc1 (single isomer, unassigned) [Example 36]", "measured": 7.39}

Item: O=C1Nc2[nH]nc(C3CCN(c4ccc(C(F)(F)F)cn4)CC3)c2C(O)(C(F)(F)F)C1O (stereo not drawn) [Example 4] | pEC50: 7.66

Item: O=C1Nc2[nH]nc(C3CCN(c4ccc(C(F)(F)F)cn4)CC3)c2[C@@H](C(F)(F)F)[C@H]1O (racemic) [Example 2] | pEC50: 7.40
